Several publications report pIC50 on UniProt:P25100; those values are gathered here.
Sequence (P25100 whole entry): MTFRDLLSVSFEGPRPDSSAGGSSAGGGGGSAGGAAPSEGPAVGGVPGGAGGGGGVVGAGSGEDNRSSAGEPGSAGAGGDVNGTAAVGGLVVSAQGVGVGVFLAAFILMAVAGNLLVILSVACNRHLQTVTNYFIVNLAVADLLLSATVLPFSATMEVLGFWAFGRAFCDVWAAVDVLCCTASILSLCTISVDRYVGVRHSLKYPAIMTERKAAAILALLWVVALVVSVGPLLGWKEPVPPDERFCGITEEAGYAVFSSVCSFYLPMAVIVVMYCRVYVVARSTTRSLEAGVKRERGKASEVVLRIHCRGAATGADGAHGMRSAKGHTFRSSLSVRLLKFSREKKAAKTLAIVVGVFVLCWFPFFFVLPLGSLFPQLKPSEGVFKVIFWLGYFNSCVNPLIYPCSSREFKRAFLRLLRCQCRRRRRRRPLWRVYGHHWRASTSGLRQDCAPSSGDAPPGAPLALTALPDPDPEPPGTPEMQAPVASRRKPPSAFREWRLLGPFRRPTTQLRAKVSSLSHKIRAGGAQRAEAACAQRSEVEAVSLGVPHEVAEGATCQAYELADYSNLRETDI
Worth noting: pIC50 values are minus log10 of concentrations stated in mol/L.

Would you please look over these solved cases?
Query: Query for UniProt:P25100: what pIC50 does the record show for CC(C)Oc1ccccc1N1CCN(CC(O)CNC(=O)c2cccnc2Oc2ccc(Cl)cc2)CC1 (centres unmarked) ?
Result: 7.13

Query: Query for UniProt:P25100: what pIC50 does the record show for `CC(C)Oc1ccccc1N1CCN(C[C@H](O)CNC(=O)c2cccnc2Oc2ccccc2)CC1` ?
Result: 6.50

Query: Query for UniProt:P25100: what pIC50 does the record show for `CC(C)Oc1ccccc1N1CCN(Cc2cc(CN3CCCC3=O)cs2)CC1` ?
Result: 7.62

More entries:
Query: Query for UniProt:P25100: what pIC50 does the record show for COc1ccccc1Oc1ncccc1C(=O)NCC(O)CN1CCN(c2ccccc2OC(C)C)CC1 (centres unmarked) ?
Result: 8.66

Query: Query for UniProt:P25100: what pIC50 does the record show for `CC(C)Oc1ccccc1N1CCN(C[C@@H](O)CNC(=O)c2cccnc2Oc2ccc(Cl)cc2)CC1` ?
Result: 7.24

Query: Query for UniProt:P25100: what pIC50 does the record show for `CC(C)Oc1ccccc1N1CCN(CCCNC(=O)c2ccc3c(c2)C(=O)N(c2ccc(O)cc2)C3=O)CC1` ?
Result: 7.89

Query: Query for UniProt:P25100: what pIC50 does the record show for `CC(C)Oc1ccccc1N1CCN(C[C@@H](O)CNC(=O)c2ccc3c(c2)C(=O)N(c2ccc(N(C)C)cc2)C3=O)CC1` ?
Result: 7.28

Query: Query for UniProt:P25100: what pIC50 does the record show for CC(C)Oc1ccccc1N1CCN(CC(O)CNC(=O)c2cccnc2Oc2ccccc2)CC1 (centres unmarked) ?
Result: 6.68
